Can you tell me pKi for the items I'm about to list?
pKi is a log-scale quantity: -log10 of the concentration expressed in molar.

[ask] Look up UniProt P08254 data: pKi of CCOP(=O)(/C=C/c1ccccc1)N1Cc2ccccc2CC1C(=O)NO (stereo not given) , then report it.
Sequence (P08254 whole entry): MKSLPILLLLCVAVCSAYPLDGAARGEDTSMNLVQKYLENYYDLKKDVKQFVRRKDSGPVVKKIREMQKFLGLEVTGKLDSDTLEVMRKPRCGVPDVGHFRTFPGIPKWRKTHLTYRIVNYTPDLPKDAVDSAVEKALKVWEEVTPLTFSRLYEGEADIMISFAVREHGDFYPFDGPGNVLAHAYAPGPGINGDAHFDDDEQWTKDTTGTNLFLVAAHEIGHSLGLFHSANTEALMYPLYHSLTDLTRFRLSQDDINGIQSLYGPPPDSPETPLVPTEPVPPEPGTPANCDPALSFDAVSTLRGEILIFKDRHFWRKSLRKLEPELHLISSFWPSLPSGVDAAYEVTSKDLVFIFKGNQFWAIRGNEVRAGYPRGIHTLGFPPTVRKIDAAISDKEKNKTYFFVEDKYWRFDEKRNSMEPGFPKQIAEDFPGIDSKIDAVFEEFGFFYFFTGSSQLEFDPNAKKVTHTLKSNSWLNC
[reply] 7.53

[ask] Return reported pKi for target or system UniProt P08254, item CCOP(=O)(c1ccc(OC)cc1)N1Cc2nccnc2CC1C(=O)NO (stereo not given) .
[reply] 7.97

[ask] GET pKi | system: UniProt P08254 | item: CCOP(=O)(c1ccc(N)cc1)N1Cc2ccccc2CC1C(=O)NO (stereo not given)
[reply] 6.79

[ask] # assay system UniProt P08254: give pKi of COc1ccc(P(=O)(OCCc2ccc(-c3ccccc3)cc2)N2Cc3ccccc3CC2C(=O)NO)cc1 (stereo not given)
[reply] 7.89

[ask] Fetch value of pKi on UniProt P08254 for CCOP(=O)(c1ccc(OC)cc1)N1Cc2cc(N)ccc2CC1C(=O)NO (stereo not given) .
[reply] 7.91

[ask] Report its pKi with UniProt P08254 as the test system: CCOP(=O)(CCc1ccccc1)N1Cc2ccccc2CC1C(=O)NO (stereo not given)
[reply] 7.94

[ask] Supply pKi measured with UniProt P08254 for CCOP(=O)(c1ccc(OC)cc1)N1Cc2[nH]c3ccccc3c2CC1C(=O)NO (stereo not given) .
[reply] 8.69

[ask] // fetch pKi; item: CCOP(=O)(c1cccs1)N1Cc2ccccc2CC1C(=O)NO (stereo not given) ; system: UniProt P08254
[reply] 7.17

[ask] # return pKi for CCOP(=O)(c1cccc(F)c1)N1Cc2ccccc2CC1C(=O)NO (stereo not given) , test system: UniProt P08254
[reply] 7.29

* * *

# assay-system: Matrix metalloproteinase-9 (Homo sapiens)
# Sequence (P14780 whole entry): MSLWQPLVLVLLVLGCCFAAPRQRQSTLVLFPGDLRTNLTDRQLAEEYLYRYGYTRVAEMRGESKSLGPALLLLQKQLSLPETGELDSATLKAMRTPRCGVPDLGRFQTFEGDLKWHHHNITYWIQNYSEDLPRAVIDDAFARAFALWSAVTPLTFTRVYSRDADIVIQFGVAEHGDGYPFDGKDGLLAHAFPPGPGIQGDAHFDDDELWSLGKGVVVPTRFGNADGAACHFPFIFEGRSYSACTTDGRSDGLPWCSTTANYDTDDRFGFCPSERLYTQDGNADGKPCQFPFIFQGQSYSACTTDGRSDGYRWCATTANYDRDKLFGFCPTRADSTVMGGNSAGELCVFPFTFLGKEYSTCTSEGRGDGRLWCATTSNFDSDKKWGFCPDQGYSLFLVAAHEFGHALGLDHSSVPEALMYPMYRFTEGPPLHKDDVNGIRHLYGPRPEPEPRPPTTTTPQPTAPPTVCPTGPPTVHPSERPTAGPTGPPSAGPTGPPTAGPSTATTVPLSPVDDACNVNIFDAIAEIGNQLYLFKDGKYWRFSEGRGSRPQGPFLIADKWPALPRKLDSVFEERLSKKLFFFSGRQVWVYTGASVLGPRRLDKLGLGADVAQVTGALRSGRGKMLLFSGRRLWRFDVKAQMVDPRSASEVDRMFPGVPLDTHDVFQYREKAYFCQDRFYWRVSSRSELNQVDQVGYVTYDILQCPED
Hi! Could you tag entries with Ki below 10 nM as true (1), and those at or above as false (0)? Much appreciated.

[ask] Given CCOP(=O)(c1ccc(-c2ccccc2)cc1)N1Cc2ccccc2CC1C(=O)NO (centres undefined) , is recorded Ki strictly lower than 10 nM?
[reply] true (1)

[ask] Hello, I'm reviewing records and need to know if Ki of CCOP(=O)(c1ccc(Oc2ccncc2)cc1)N1Cc2ccccc2CC1C(=O)NO (centres undefined) is below 10 nM. Could you check?
[reply] true (1)

[ask] A record lists CCCCOP(=O)(c1ccc(OC)cc1)N1Cc2ccccc2CC1C(=O)NO (centres undefined) . Is its Ki below 10 nM?
[reply] true (1)

[ask] Is 10 nM strictly greater than the compound's reported Ki? compound: COc1ccc(P(=O)(OCC2CCCCC2)N2Cc3ccccc3CC2C(=O)NO)cc1 (centres undefined)
[reply] true (1)

[ask] Determine if CCOCCOP(=O)(c1ccc(OC)cc1)N1Cc2ccccc2CC1C(=O)NO (centres undefined) shows Ki strictly lower than 10 nM.
[reply] true (1)

[ask] Quick check: does CCOP(=O)(c1ccccc1F)N1Cc2ccccc2CC1C(=O)NO (centres undefined) have Ki under 10 nM?
[reply] false (0)

[ask] Take the compound CCOP(=O)(c1ccncc1)N1Cc2ccccc2CC1C(=O)NO (centres undefined) and say whether its Ki is less than 10 nM.
[reply] false (0)

[ask] API: query returns whether the compound falls strictly under 10 nM in Ki. Query: CCOP(=O)(c1ccc(OC)cc1)N1Cc2ccsc2CC1C(=O)NO (centres undefined)
[reply] true (1)

[ask] Item CCOP(=O)(c1ccc(OC)cc1)N1CCCC1C(=O)NO (centres undefined) : Ki beneath 10 nM, strictly?
[reply] false (0)

[ask] Given CCOP(=O)(/C=C/c1ccccc1)N1Cc2ccccc2CC1C(=O)NO (centres undefined) , is recorded Ki strictly lower than 10 nM?
[reply] false (0)

[ask] Here's an entry: CCOP(=O)(c1ccc(OC)cc1)N1Cc2[nH]c3ccccc3c2CC1C(=O)NO (centres undefined) . Is its Ki below 10 nM?
[reply] true (1)

[ask] Please let me know if COc1ccc(P(=O)(OCCc2ccccc2)N2Cc3ccccc3CC2C(=O)NO)cc1 (centres undefined) shows Ki below 10 nM.
[reply] true (1)

[ask] Does CCOCCOc1ccc(P(=O)(OCC)N2Cc3ccccc3CC2C(=O)NO)cc1 (centres undefined) have Ki strictly under 10 nM?
[reply] false (0)

[ask] Is 10 nM strictly greater than the compound's reported Ki? compound: CCOP(=O)(c1ccccc1)N1Cc2ccccc2CC1C(=O)NO (centres undefined)
[reply] false (0)

[ask] Does this compound meet the criterion Ki < 10 nM? COc1ccc(P(=O)(OCCc2ccccn2)N2Cc3ccccc3CC2C(=O)NO)cc1 (centres undefined)
[reply] true (1)

[ask] Hello, is Ki of the following compound strictly smaller than 10 nM? COc1ccc(P(=O)(OC)N2Cc3ccccc3CC2C(=O)NO)cc1 (centres undefined)
[reply] true (1)

[ask] Please let me know if COc1ccc(P(=O)(OCCc2ccc(-c3ccccc3)cc2)N2Cc3ccccc3CC2C(=O)NO)cc1 (centres undefined) shows Ki below 10 nM.
[reply] true (1)

[ask] I'd appreciate it if you could check whether CCO[P@](=O)(c1ccc(OC)cc1)N1Cc2ccccc2C[C@H]1C(=O)NO has Ki smaller than 10 nM.
[reply] false (0)

[ask] hey, is Ki for CCO[P@@](=O)(c1ccc(OC)cc1)N1Cc2ccccc2C[C@H]1C(=O)NO lower than 10 nM or not?
[reply] false (0)

The measurements presented in this section are drawn from ChEMBL document CHEMBL1135723.
